Biological target: T1, rat BMP9 (rat, UniProt M0RB87 320-430, The mature growth factor is a disulfide-linked homodimer. One copy of the polypeptide is given.)
T1 construct: also called rat BMP9 (R&D Systems 5566-BP); rat BMP9 condition medium
T1 sequence: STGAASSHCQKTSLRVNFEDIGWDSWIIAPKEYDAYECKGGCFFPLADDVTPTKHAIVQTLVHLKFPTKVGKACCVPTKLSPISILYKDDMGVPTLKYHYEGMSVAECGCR
Assay: MSD-SET solution equilibrium titration
Cut-off 10 pM on Kd: below means Condition met, at or above means Condition not met.

Please review the entries below; each comes with its answer.
{"binder": "Antibody BMP9-2: MOR022962 (antibody, human IgG1, kappa, V domains shown) VH: QVQLLESGGGLVQPGGSLRLSCAASGFTFSSYAMSWVRQAPGKGLEWVSITLGTGHTHYADSVKGRFTISRDNSKNTLYLQMNSLRAEDTAVYYCARGSYIIWSALDYWGQGTLVTVSS VL: DIQMTQSPSSLSASVGDRVTITCRASQDIRSYLNWYQQKPGKAPKLLIYDASNLQSGVPSRFSGSGSGTDFTLTISSLQPEDFATYYCQQSDTSPLTFGQGTKVEIKR", "answer_label": "Condition met"}
{"binder": "Antibody BMP9-4: AM4405 (antibody, human IgG1, kappa, V domains shown, also called 2B11G2-AM4405) VH: QVQLVQSGAEVKKPGASVKVSCKASGYTFRSYNMHWVRQAPGQGLEWMGLIYPGNAVTSYSQKFKDRVTMTVDKSTSTAYMELSSLRSEDTAVYYCAKDDYFRGGSYAMDYWGQGTTVTVSS VL: EIVLTQSPDFQSVTPKEKVTITCRASQSIRNNLHWYQQKPDQSPKLLIKYASQSIRGVPSRFSGSGSGTDFTLTINSLEAEDAATYYCQQSHSWPYTFGGGTKVEIKR", "answer_label": "Condition not met"}
{"binder": "Antibody BMP9-5: AM1900 (antibody, human IgG1, kappa, V domains shown) VH: QVQLVQSGAEVKKPGASVKVSCKASGYTFTRYWMHWVRQAPGQGLEWMGEINPSQGGTNYNEKFKSRVTMTVDKSISTAYMELSRLRSDDTAVYYCAIGANYGGLVYWGQGTLVTVSS VL: EIVLTQSPATLSLSPGERATLSCRASESLDNYGISFMNWFQQKPGQAPRFLIYAASNQGSGIPARFSGSGSGTDFTLTISSLQPEDTAVYFCQQSKEVPRTFGGGTKVEIKR", "answer_label": "Condition not met"}
{"binder": "Antibody BMP9-3: MOR023795 (antibody, human IgG1, lambda, V domains shown, Fully human, phage display) VH: EVQLVQSGAEVKKPGESLKISCKGSGYSFTTYWIGWVRQMPGKGLEWMGIIYPEGSYTTYSPSFQGQVTISADKSISTAYLQWSSLKASDTAMYYCARGKRVDASSFDYWGQGTLVTVSS VL: QSVLTQPPSVSGAPGQRVTISCSGSSSNIGDNYVSWYQQLPGTAPKLLIYRNNKRPSGVPDRFSGSKSGTSASLAITGLQAEDEADYYCSSTDKEHLVFGGGTKLTVLG", "answer_label": "Condition not met"}

Consider the additional binder presented here.
Is it true that Kd reported for Antibody BMP9-1: AM0100 (antibody, human IgG1, kappa, V domains shown, also called 4E10D7-AM0100) VH: QVQLVQSGAEVKKPGASVKVSCKASGYTFTRYWMHWVRQAPGQGLEWMGEINPSQGGTNYNEKFKSRVTMTVDKSISTAYMELSRLRSDDTAVYYCAIGSNYGGLVYWGQGTLVTVSS VL: EIVLTQSPATLSLSPGERATLSCRASESLDNYGISFMNWFQQKPGQAPRFLIYAASNQGSGIPARFSGSGSGTDFTLTISSLQPEDTAVYFCQQSKEVPRTFGGGTKVEIKR is less than 10 pM?
Condition not met
